- Test system: S. pneumoniae ATCC 49619
- experiment notes: Minimal inhibitory concentration (MIC) by broth microdilution (CLSI M7-A7)
- Assay type: cell-based, Streptococcus pneumoniae
- condition label: Streptococcus pneumoniae, ATCC49619; cation-adjusted Mueller Hinton Broth supplemented with 3% (v/v) lysed horse blood; microdilution method
metric name: MIC (µg/mL)

{"columns": ["structure smiles string", "units", "MIC"],
 "data": [
  ["CCNC(=O)Nc1cc2c(-c3ccncc3)ccc(CNC(=O)CCCNC(=O)OC(C)(C)C)c2cn1", "µg/mL", 1],
  ["CCNC(=O)Nc1cc2c(-c3ccncc3)ccc(CNC(=O)OCCC(=O)O)c2cn1", "µg/mL", 8],
  ["C#CCCOC(=O)NCc1cccc2cc(NC(=O)NCC)ncc12.Cl", "µg/mL", 4],
  ["C#CCOC(=O)NCc1ccc(-c2ccc(C(N)=O)cc2)c2cc(NC(=O)NCC)ncc12.Cl", "µg/mL", 0.25],
  ["CCNC(=O)Nc1cc2c(-c3ccncc3)ccc(CNC(=O)CC(=O)O)c2cn1", "µg/mL", 8]
]}

A: CCNC(=O)Nc1cc2cccc(CNC(=O)c3cn[nH]n3)c2cn1
B: CCNC(=O)Nc1cc2c(-c3ccncc3)ccc(CNC(=O)c3cc[nH]n3)c2cn1
C: CCNC(=O)Nc1cc2cccc(CNC(=O)OCC)c2cn1.Cl
D: CCNC(=O)Nc1cc2c(-c3ccncc3)ccc(CNC(=O)OC[C@H]3CC[C@H](CN)CC3)c2cn1.Cl
E: CCNC(=O)Nc1cc2cccc(CNC(=O)CNC(C)=O)c2cn1
Qu. rank_up(items): orders items by reported MIC in ascending numerical order. API: response body holds the labels in the requested order.
Ans. B, A, D, C, E
(B: 0.5 µg/mL, A: 1 µg/mL, D: 2 µg/mL, C: 4 µg/mL, E: 8 µg/mL)

1: CCNC(=O)Nc1cc2c(-c3ccncc3)ccc(CNC(=O)c3cccnc3)c2cn1
2: CCNC(=O)Nc1cc2c(-c3ccnc(C)c3)ccc(CNC(=O)OC)c2cn1
Qu. Of 1 and 2 , which one carries the higher reported MIC? Output the label that corresponds to your choice.
Ans. 1
(1: 1 µg/mL, 2: 0.5 µg/mL)

I: CCNC(=O)Nc1cc2c(-c3ccncc3)ccc(CNC(=O)C(C)C)c2cn1
II: CCNC(=O)Nc1cc2c(-c3ccnc(F)c3C)ccc(CNC(=O)OC)c2cn1.Cl
Qu. Which gives the smaller MIC number: I or II ? Output the label that corresponds to your choice.
Ans. I
(I: 0.5 µg/mL, II: 4 µg/mL)

a: C#CCOC(=O)NCc1ccc(-c2cccc(O)c2)c2cc(NC(=O)NCC)ncc12.Cl
b: CCNC(=O)Nc1cc2c(-c3ccncc3)ccc(CNC(=O)CO)c2cn1
Qu. Which gives the smaller MIC number: a or b ? Output the label that corresponds to your choice.
Ans. a

* * *

- Tested on: S. pneumoniae ATCC 49619
- experiment notes: Minimal inhibitory concentration (MIC) by broth microdilution (CLSI M7-A7)
- Type: cell-based, Streptococcus pneumoniae
- condition label: Streptococcus pneumoniae, ATCC49619; cation-adjusted Mueller Hinton Broth supplemented with 3% (v/v) lysed horse blood; microdilution method
metric name: MIC (µg/mL)

Reference set, count: 2
{"columns": ["compound", "obs value"],
 "data": [
  ["C#CCOC(=O)NCc1ccc(-c2ccc(N)nc2)c2cc(NC(=O)NCC)ncc12.Cl [Example 131]", 0.5],
  ["CCNC(=O)Nc1cc2c(-c3ccncc3)ccc(CNC(=O)OCCN3CCCC3)c2cn1 [Example 80]", 8]
]}

I: CCNC(=O)Nc1cc2c(-c3ccncc3)ccc(CNC(=O)OCC(C)C)c2cn1.Cl [Example 99]
II: CCNC(=O)Nc1cc2c(-c3ccncc3)ccc(CNC(=O)OCc3cncn3C)c2cn1.Cl [Example 88]
III: CCNC(=O)Nc1cc2c(-c3ccncc3)ccc(CNC(=O)CCC(=O)NC)c2cn1 [Example 55]
Qu. rank_up(items): orders items by reported MIC in ascending numerical order. API: response body holds the labels in the requested order.
Ans. I, II, III
